// data source = patent US20180044434A1

Overview of reported koff across a group of binders:
# TESTED_TARGET: T1, full-length recombinant human PAD4 (human, UniProt Q9UM07 1-663)
# T1 construct: Full-length recombinant; also called peptidylarginine deiminase 4
# T1 sequence (Q9UM07 whole entry): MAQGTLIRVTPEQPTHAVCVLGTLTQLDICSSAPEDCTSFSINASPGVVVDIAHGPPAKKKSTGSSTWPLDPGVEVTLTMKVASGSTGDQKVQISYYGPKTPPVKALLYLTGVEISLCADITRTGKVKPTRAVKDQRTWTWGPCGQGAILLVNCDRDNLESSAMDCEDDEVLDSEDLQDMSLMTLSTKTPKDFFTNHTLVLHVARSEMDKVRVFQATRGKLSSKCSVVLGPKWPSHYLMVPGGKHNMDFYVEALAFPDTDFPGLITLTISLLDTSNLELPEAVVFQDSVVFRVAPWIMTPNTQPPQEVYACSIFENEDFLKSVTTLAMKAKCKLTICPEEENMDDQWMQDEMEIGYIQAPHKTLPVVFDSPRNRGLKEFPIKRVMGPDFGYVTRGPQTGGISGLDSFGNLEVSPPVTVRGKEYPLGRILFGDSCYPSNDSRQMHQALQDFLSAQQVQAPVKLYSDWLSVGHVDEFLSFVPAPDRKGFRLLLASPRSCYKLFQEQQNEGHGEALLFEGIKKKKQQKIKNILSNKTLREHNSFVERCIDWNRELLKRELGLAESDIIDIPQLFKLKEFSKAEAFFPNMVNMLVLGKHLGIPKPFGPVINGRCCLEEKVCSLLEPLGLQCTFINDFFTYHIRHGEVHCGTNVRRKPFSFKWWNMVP
# EXPERIMENTAL_PROTOCOL: SPR (Biacore T200), antibody captured, human PAD4 analyte
# Experimental: Biacore (GE Healthcare, Biacore T200) was carried out to evaluate the affinity of A11 etc., toward human PAD4. A Mouse Antibody Capture kit (GE Healthcare, BR-1008-38) was used for the affinity assay. Specifically, in accordance with the standard protocol provided by the manufacture, NHS/EDC was used and an amine coupling method, in which a free carboxyl group is fixed on a surface of a CM5 chip, was used to immobilize a rabbit anti-mouse polyclonal antibody on the surface of a CM5 chip. […]

# BINDER, koff, s⁻¹
rows = [
    ("G8 (antibody, V domains shown, Chicken variable regions in a mouse chimeric antibody (IgG1); also called anti-PAD4 antibody G8) VH: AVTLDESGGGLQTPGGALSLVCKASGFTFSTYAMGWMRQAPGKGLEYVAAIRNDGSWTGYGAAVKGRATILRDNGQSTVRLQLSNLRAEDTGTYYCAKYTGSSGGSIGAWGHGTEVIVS VL: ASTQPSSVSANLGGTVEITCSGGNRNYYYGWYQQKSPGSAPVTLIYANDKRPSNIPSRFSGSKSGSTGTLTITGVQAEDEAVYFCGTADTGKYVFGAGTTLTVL", 0.000243),
    ("H7 (antibody, V domains shown, Chicken variable regions in a mouse chimeric antibody (IgG1); also called anti-PAD4 antibody H7) VH: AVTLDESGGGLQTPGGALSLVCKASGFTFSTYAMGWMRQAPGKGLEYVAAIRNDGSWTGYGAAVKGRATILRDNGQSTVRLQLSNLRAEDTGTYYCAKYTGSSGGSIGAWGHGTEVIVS VL: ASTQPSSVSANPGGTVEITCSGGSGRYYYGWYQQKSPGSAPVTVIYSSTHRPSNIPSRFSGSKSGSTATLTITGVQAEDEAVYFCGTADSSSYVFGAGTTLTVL", 0.000791),
    ("A11 (antibody, V domains shown, Chicken variable regions in a mouse chimeric antibody (IgG1); also called anti-PAD4 antibody A11) VH: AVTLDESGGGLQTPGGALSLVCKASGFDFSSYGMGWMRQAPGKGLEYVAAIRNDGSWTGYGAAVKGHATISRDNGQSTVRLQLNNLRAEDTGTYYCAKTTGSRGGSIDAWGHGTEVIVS VL: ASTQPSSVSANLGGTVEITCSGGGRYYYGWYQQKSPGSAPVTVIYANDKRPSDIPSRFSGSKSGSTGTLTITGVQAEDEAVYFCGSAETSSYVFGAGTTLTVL", 0.000566),
]
